# assay info: yeast display, Sf9 membrane polyspecificity reagent, FACS + sequencing; frameworks hold sequencing errors

chain | polyreactivity (PSR sort gate)
QVQLVESGGGLVQAGGSLRLSCPATGFTFSVYVMAWYRLAPGKERELVAAISSGGDTTYADSVKGRFTISRDNAKNTVYLQMNSLKPEDTAVYYCAAYRVILYYLYDYWGQGTQVTVSS | low polyreactivity
QVQLVESGGGLVQAGGSLRLSCAASGFIFWYYAMGWYRHAPGKERELVAVISSGSSTHYADSVKGRFTISRDNAKNTVYLQMNSLKPEDTAVDYCAARIRTRYFTGYYYWGQGTQVSVSS | high polyreactivity
QVQLVESGGGLVQAGGSLRLSCAASGSTVDRYAMGGYRQAPGKERELVAAITSSGGSTYDADSVKGRFTISRDNAKNTVYVQMNSLKPEDTAVYYCNALITYSTDYWGQGTQVTVSS | low polyreactivity
QVQLVESGGCLVQAGGSLRLSCPPSGSIFIYYAMGWYRHAPGKERELVAAISWSCGDTYYADSVKGRFTISRDNAKNTVYLQMNSLKPEDTAVYYCNADFDPYYPYTAWDSVLTHDEYWGQGTQVTVSS | low polyreactivity
QVQLVESGRGLVQAGGSLRLSCAASGTYGYYAMGWYRQAPGKQRELVAAISGSGGSTYYADSVKGRFTISRDNAKNTVYLQMNSLKPEDTAVYYCAKRRRYGGRWVSGDYWGQGTQVTVSS | high polyreactivity
QDQLVESGGGLVQAGGSLRLSFAAYGSTFIVYAMGWYRHAPGKERDLVAAISLDGGSTYYADSVKGRFTISLDNAKNNVYLQMNSLKPEDTAVYYCNADYYANSITYDSWGQGTQVTVSS | low polyreactivity
QVQLVESGGGLVLAGGSLRLSCAASGSIFIHYAMGWYRQARGKERELVAAITGDGNTTYADSVKGRFTISRDNAQNTVNLPINSLKPEDTAVYSCAVTIVDYVWAFDYWGQGTQVNVSS | low polyreactivity
QVQLVESGGGLVKAGGSLRLSCAASGRTFRDNAMGWYIQAPGKERELVADIDIDSSTYYADSVKGRFTISRDNAKNTVYLQMNSLKPEDTAVYYCAATFTYLGYWYDYWGQCTQVTVSS | low polyreactivity
QVQLVESGGGLVQAGGSLRLSCAASGRTFRGNDMGWYRQAPGKERELVATITRNGGSTRYADSVKGRFTISRDNAKNTVYLQMNSLKPEDTAVYYCNARSRYFGYDYWGQGTQVTVSS | high polyreactivity
QDQLVESGGGLVQAGGSLRLSCAASGLTFKYYTMGWYRQAAGKERELVAYISRTGRTSYADSVKGRFTISRDNAKNTVYLQMNSLNPEDTGVYYCNADFYVSGYSLFDSIYDYWGQGTQVTVSS | high polyreactivity
QVQLVESGGRLVQAGGSHRLSCAASGRTFFHYAMGWYRQSPGKERELVAAITYRGTSTYYADSVKGRFTISRDNAKYTVYIQMNSLKPEDTAVYYCNAYSTRGGWSYRGDSWGQGTQVTVSS | high polyreactivity
QVQLVESGGGLVQAGGSLRLSCAASGGTFIRYAMGWYRQAPGKEREFVAAISASGGSTYYADSVKGRFTISRDNAKNTVYLQMNSLKPEDTAVYYCAARRTNLPVKFYYWGQGTQVTVSS | high polyreactivity
QVQLVESGGGLLQAGGSLRLSCAASGSIFGYNAMGWYRQAPGKERELVAAISYSGGSTYYADSVKGRFPISRDNAKNTVYLQMNSLKPEDTAVYYCAKAGRYANLPYGYWGQGTQVTVSS | high polyreactivity
QVQLVESGGGLVQAGGSLRLSCAASGSIFYFYAMGWYRQAPGKERELVAAISFSGTRTYYADSVKGRFTISRDNAKNTVYLQRNSLKPEDTAVYYCNAVAYNYPRTYDYWGPGTQVTVSS | high polyreactivity
QVQLVESGGGLVQAGGSLRLSCAASGGNFRYYAMGWYRQAPGKERELVAAITRGGRTSYADSVKGRFTISRDNAKNTVYLQMNSLKPEDSAVYYCNAKRPYQEHNSYGYWGQGSQVTVSS | high polyreactivity
QVQLVESGGGLVQAGGSLSLTWAASGSTFSYYVMGWYRQAPGKETELVAGITRGGRTYYADSENGRFTISRDNAKNSVFLQMNSLKPEDTAVYYCAKDQGGVLELDYWGQGTQVTVSS | low polyreactivity
QVQLVGSGGGLVQAGGSLRLSCAASGRIFDKNAMGWYRQAPGKERELVAAISGGGRTYYADSVKGRFTISRDNAKNTVYLQMNSLKQEDTAVYYCNVPYYYTGGSYGYWGQGTQVTVSS | low polyreactivity
QVHLVESGGGLVQAGGSLRLSCAASGSNFKGNAMGWYRQAPGKERELVAAINRSGTSTYYADSVKGRFTISRDNAKKTVYLQMNSLKPEDTAVYYCAKKYFGHRFDYWGQGTQVTVSS | high polyreactivity
QVQLVESGGGLVQAGGSLRLSCAASGRIFYWNVMGWYRQAPGKERELVAAISSSGASTSYADSEKGRFTISRDNEKNTVYLQMNSLKPEVTAGYYCDARTRRNYRQYNYWGQATQVTVSS | high polyreactivity
QDQLVESGGGLVQAGGSLGLRCAATGSTFTYYTMGWYRQAAGKERELVAAISRTTGSTYYADSVKGRFTISRDNAKNTVYLQMNSLKPEDTAVYYCAAQSYKILLYFIGTAGDGYWGQGTQVTVSS | low polyreactivity
QVHLEESGRGLLQAGGSLRLSCDASGSTQNLYVMGWYRQAPGKESELVAAITSRGGRTYYADSVKGRFTISRDNAKNTVYLHMNSLKPEDTAVYYCAATKKTGYYRYYYWGQGTQVTVSS | high polyreactivity

###

# assay info: yeast display, Sf9 membrane polyspecificity reagent, FACS + sequencing; frameworks hold sequencing errors

chain | polyreactivity (PSR sort gate)
QVQLVESGGGLVQAGGSLRLSCAASGRTFATYSMGRYIQAPGKERELVAAISRSGSTTYYADSVKGRFTISRDNAKNTVYLQMNSLKPEDTAVYYCNAKFRKADYDYWGQGTQVTVSS | high polyreactivity
QVQLVESGGALVQAGGSLRLSCAASGRIFGVNTMGWYRQAPGKERELVDAISAGGGSTYYADSVKGRFTISRDLAKNTVYLQMNSLKPEDTAVYYCNVLTLNYRSTSRRKEYDYWGQGTQVTVSS | high polyreactivity
QVQLVESGGGLVQAGGSLRLSCAASGLIFDINAMGWYRQAPGKERDLVAAISFSDGITYYADSVKGRFTISRDNAKNTVYLHMNSLKPEDTAVYYCAVDYRIYRSGPMDYWGQGTQVTVSS | high polyreactivity
QVQLVESGGGLVRAGGSLRLSCAASGSTFPFYAMGWYRQAPGKERELVAAITSGGSTYADSVKGRFTISRDNAKNTVYFQMNSLKAEVTAVYYCAASWPRWWRFGYWGQGTQVTVSS | low polyreactivity
QVQLVESGGGLVQAGGSLRLSCAASGSIFRSYAMGWYRQAPGTERELVDGISYSGGSTYYADSVKGRFTISRDNAKNTVYLQMNSLKPEDTAVYYCNVDGGTYFFFVGAWGEYDYWGQGTQVTVSS | low polyreactivity
QVQLVESAAGLVQAGGSLRLSCAASGRTFQYNAIGWYRQAPGKETELVAAISSSGGSTYYADSVKGRFTISRDNAKNTVYLQLNSLKPEDTAVYYCNAYSQSWNFYGDGDYWGQGTQVTVSS | low polyreactivity
QVQLVESGGGLVQAGGSLRLSCAASGYTFGAYAMGWYRQAPGKERELVAAIPVRAGRTYYADSVKGRFTISRDNAKNTVYLQMNSLKPEDTAVYYCARRNPLGGNEHDYWGQGTQVTVSS | low polyreactivity
QVQLVESGGGLVQAGGSLRLSCAASGSIFITYAMGWYRQAHGKERELVAAIRDSGDRTYYADSVKGRFTISRDNAKNTVYLQMNSLKPEDTAVYYCNKDIERYVRIYDSWGQGTQVTVSS | low polyreactivity
QVQLVESGGGLVQAGGSLRLSCAASGFIFSYYTMGWYRQAPGKERELVAAISRNGGSTYYADSVKGRFTISRDNAKNTVYLQMNSLKPEDTAVYYCAKRVFNYQRYDYWGQGTQVSVSS | high polyreactivity
QVQLVESGGGLVQAGGSLRLSCAPSGSTFYRYSMGWYRHAPGKERELVAAINGGDITNYADSVKGRFTISRDNAKNTVYLQMNSLKPEDTAVYYCAARYTYWGLLRYDYWGQGTQVTVSS | high polyreactivity
QVHLVESGGGLVQAGGSLRISCAASGRTFYIYAMGWYRQAPGKERELVAAISWGSGSTYYADSVKGRFTISRDNAKNTVYLQMNSLKPEDTAVYYCAADYAYPSEWTYDYWGQGTQVTVSS | low polyreactivity

###

# assay info: yeast display, Sf9 membrane polyspecificity reagent, FACS + sequencing; frameworks hold sequencing errors
result type: polyreactivity (PSR sort gate)

chain | result
QVKLVESGGCLVQEGGSHRLSCAASGYIFDAYAMGWYRQAPGQERELVAAIDIGGSTYYADSVKGRFTISRDNAKNTVYLQMNSLKPEDTAVYYCAVWFYFDQWDYAREYWGQGTQVTVSS | low polyreactivity
QVQLVESGGGLVQAGGSLRLSCAASGRTFAGNAMGWYRQAPGKERELVATITSRGTITYYADSVKGRFTISRDNAKNTVYLQMHSLKPEDTAVSYCNVRYYFPRYQQPYQLNEYYYWGQGTQVTVSS | low polyreactivity
QVQLVESGGGIVQAGGSLRLTCAASGFTFFYNAMGWYRQAPGKERELVAAITTNGGSTYYADSVKGRFTISRDNANNTVYLQMNSLKTEDTAVYYFAAEYGITEYDYWGQGTQVTVSS | low polyreactivity
PVQLVESGGGLVQAGGSLRLSCAASGRIFPSYAMGWYRQAPGKERELVATINGDGGSTYYADSVKGRFTISRDNAKNTVYLQMNSLKPEDTAVYYCAKRYPFAAEYDYWGQGTQVTVSS | low polyreactivity
QVQLVESCGGLVQAGCSLRLSCAASGRTFVWYAMGWNRQAPGKERELVAAITLSGGSTYYADSVKGRFTISRDNAKNTVFLQMNSLIPEDTAVYYCAADGTYRPEDYDYWGQGTQVTVSS | low polyreactivity
QVQLVESGGGLVQAGGSLRLSCAASGLILYHYAMGWYRQAPGKERELVAAISRSGGRTSYADSVKGRFTISRDNAKNTVYLQMNSLKPEDTAVFYCAAEKVGTRPSRDYDYWGQGTQVTVSS | high polyreactivity
QVQLVESGGGLVQAGGSLRLSCAASGRIFVYNAMGWYRQAPGKEREFVATITSSGGRTYYADSVKGRFTISRDNAKNTVYLQMNSLKPEDTAVYYCAARPQNNGRNPVYRYNYWGQGTQVTVSS | high polyreactivity
QVQLVESGGGLVQAGGSLRLSCAASGRILPSNAMGWYRQAPGKDRELVATISSSGGDTYYADSVKGRFTISRDNAKNTVYLQMKSLKPEDTAVYSCNAAGRTPSTGFDYDYWGQGTQVTVSS | low polyreactivity
QVQLVESGGGLVQAGGSLRLSCAASGRIFGRYAMGWYRQAPGKERELVAVISARGARTYYADSVKGRFTISRDNAKNTVYLQMNSLKPEDTAVYYCAVDQYATDDYWGQGTQVTVSS | high polyreactivity
QVQLVESGGGLVQAGGSLRLSCAASGFIFAYYAMGWYRQAPGKERELVAAISQSGTSTYYADSVKGRFTISRDNAKNTVYLQMNSLKPEDTAVYYCNVVPTGVHIFDYWGQGTQVTVSS | low polyreactivity
QVQLVESAGGLVQAGGSLRLSCAASGSTFTYKGMGWYRQAPGKERELVASISSRGGSTYYADSVKGRFTISRDNAKNTVYLQMNSLKPDDTAVYYCAAVARARARTPWLGRGYWGQVTQVTVSS | high polyreactivity
QVQLVESGGRLVQAGGSLRLSCAASGSTFTRYVMGWYRQAPGKERELVAVISSSGGSTYYADSVKGRFTISRDNAKNTVYLQMNSLKPEDTAVYYCAARYSAKHYGYGYWGQGTQVTVSS | high polyreactivity
QVQLVESGGGLVQAGGSLRLSCADSGRIFHTYAMGWYRHAPGKERELVAAISKGGSGTYYADSVKGRFTISRDNAKNTVYLQRNSLKPEDTAVYYCAADLTYHYPRYITYEYWGQRTQVTVSS | low polyreactivity
QVQLVESGAGLVQAGGSLRLSCSAYGFIFGFYAMGWSRQAPGKERELVADITSSGGSTYYADSVKGRFTLSRDNAKNTVYLQMNSLKPEDTAVYYCAADGWWHNFYPGNGLDYWGQGTQVTVSS | low polyreactivity
QVQLVESGGGLVQAGGSLRLSCAASGIIFDDYAMGWYRQAPGKERELVAAITDSGGSTYYADSVKGRFTISRDNAKNTVYLQMNSLKPEDTAVYYCAARTQRRVNRVGYRSNYYYWGQGTQVTVSS | low polyreactivity
QVQLVESGGGLVQAGGSLRLSCAASGFTFGKYARGWYRQAPGKERELVAAISRSGGSTYYADSVKGRFTISRDNAKNTVYLQMNSLKPEDTAVYYCAAYHPIQEYDYWGQGTQVTVSS | high polyreactivity
QVQLVESGGGLVQAGGSLRLSCAASGITFGKNAMGWYRQAPGKERELVATIRRSGGSTYADSVKGRFTISRDNAKNTVYLQMNSLKPEDTAVYYCNARSWNTYNYWGQGTQVTVSS | high polyreactivity
QVQLVASGGGLVQSGGSLRLSCAASGSTITWYAMGWYRQAPGKDRELVARISSGDRPNYADSVKGRFTISRDNAKNTVYLQMNSLKPEDTAVYYCNADYGQPSYYDDGDYWGQGTQVTVSS | low polyreactivity
QVQLVESGAGLVEAGASLRLSCAASGSNFRINAMGLYRQAPGKERELVAAITASGGSTYADSVKGRFTISRDNAKNTVYLQMNSLKPEDTAVYDCAARYFPRHRYYFWGQVTQVTVSS | high polyreactivity
QVQLVESGGGLVQAGGSLRLSCAASGSTFSRNTMGWYRQAPGKERELVAAITRSGDSTYYADSVKGRFTISRDNAKKTVYLQMNSLKPEDTAVYYCAARRAYLNYYYWGQGTQVTVSS | high polyreactivity
QVQLVESGGGLVQAGGSLRISFAASGFFFARYAMGWYRQEPGKERELVAAISGSGARTYYADSVKGRFTNSRDNAKNTVYLQMNSLKPEDTAVYYCAVRGSWYSEHNYWGQGTQVTVSS | high polyreactivity

Ref: the nanobody polyreactivity screen of Harvey et al. (2022)
